target: human mGlu5 receptor (CHO T-REx h-mGluR5 cells) (Homo sapiens (Human), UniProt P41594); experiment: Calcium fluorescence measurement, potentiation of mGlu5 activation at EC20 of glutamate; type: cell-based; settings: 1 microM, agonist glutamate
Sequence (P41594 21-1212): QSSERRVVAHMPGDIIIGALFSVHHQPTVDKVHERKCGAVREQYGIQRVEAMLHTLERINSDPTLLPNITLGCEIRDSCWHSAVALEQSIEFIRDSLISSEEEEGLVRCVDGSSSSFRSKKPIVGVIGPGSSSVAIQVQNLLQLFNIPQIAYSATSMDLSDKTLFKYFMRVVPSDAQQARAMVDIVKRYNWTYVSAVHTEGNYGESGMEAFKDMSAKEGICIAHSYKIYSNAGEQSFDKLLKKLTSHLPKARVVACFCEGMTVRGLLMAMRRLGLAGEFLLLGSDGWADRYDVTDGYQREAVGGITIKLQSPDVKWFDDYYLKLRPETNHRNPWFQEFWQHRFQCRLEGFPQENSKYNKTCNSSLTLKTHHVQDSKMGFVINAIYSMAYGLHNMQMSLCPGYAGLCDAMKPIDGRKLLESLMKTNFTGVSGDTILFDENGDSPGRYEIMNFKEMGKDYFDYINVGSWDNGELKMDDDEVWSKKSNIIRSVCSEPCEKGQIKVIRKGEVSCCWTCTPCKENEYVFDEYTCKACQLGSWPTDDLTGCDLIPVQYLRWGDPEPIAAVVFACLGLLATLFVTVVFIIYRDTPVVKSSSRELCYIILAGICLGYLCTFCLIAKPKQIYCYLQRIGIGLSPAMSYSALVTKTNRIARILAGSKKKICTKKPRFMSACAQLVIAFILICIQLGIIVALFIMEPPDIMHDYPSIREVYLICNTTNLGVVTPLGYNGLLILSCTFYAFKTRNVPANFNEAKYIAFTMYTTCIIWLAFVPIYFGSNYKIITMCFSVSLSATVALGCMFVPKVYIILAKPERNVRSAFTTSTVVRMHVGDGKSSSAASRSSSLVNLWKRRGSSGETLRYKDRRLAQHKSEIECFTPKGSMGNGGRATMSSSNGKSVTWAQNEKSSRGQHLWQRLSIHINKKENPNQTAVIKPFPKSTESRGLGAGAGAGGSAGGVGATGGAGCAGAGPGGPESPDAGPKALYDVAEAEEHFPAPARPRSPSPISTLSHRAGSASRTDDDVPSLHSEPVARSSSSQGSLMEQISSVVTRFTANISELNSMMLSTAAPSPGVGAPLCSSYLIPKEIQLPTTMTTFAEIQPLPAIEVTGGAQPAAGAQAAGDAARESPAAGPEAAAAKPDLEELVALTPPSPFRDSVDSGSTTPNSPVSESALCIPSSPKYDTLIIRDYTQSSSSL
Mark MET for reported Fold Increase 1 microM Glutam. of 4 fold or greater; mark NOT MET for anything smaller.

Is Fold Increase 1 microM Glutam. for O=C(OCC1CC1)N1CCC2C(C#Cc3cccc(Cl)c3)=NOC21 (centres unmarked) at or above 4 fold?
NOT MET

Is Fold Increase 1 microM Glutam. for O=C(N1CCOCC1)N1CCC2C(C#Cc3cccc(Cl)c3)=NOC21 (centres unmarked) at or above 4 fold?
NOT MET

Identify whether the reported Fold Increase 1 microM Glutam. of the following compound is 4 fold or greater: O=C(C1CCOCC1)N1CCC2C(C#Cc3cccc(Cl)c3)=NOC21 (centres unmarked)
NOT MET

Check if Fold Increase 1 microM Glutam. >= 4 fold (inclusive). Item: CC(C)(C)NC(=O)N1CCC2C(C#Cc3cccc(Cl)c3)=NOC21 (centres unmarked)
NOT MET

I'd appreciate it if you could say whether CC(C)(C)COC(=O)N1CCC2C(C#Cc3cccc(Cl)c3)=NOC21 (centres unmarked) has Fold Increase 1 microM Glutam. at least equal to 4 fold.
MET

Determine whether measured Fold Increase 1 microM Glutam. meets or exceeds 4 fold for CN1CCN(C(=O)N2CCC3C(C#Cc4cccc(Cl)c4)=NOC32)CC1 (centres unmarked)
NOT MET
